- Assay overview: solvent given as SMILES
- Condition details: in CCOCC
Property: fluorescence lifetime
Put your answer as a value accompanied by its unit after it.

Observe how each entry below is paired with its result.
>>> result("COc1nc(Cl)nc(Nc2ccc3c4c(cccc24)C(=O)c2ccccc2-3)n1")
"1.6 ns"
>>> result("OB(O)c1ccc(-c2ccc(N(c3ccccc3)c3ccccc3)cc2)cc1")
"1.69 ns"
>>> result("COC(=O)c1ccc(C#Cc2ccc(N(C)C)cc2)cc1")
"0.959 ns"

So what does the record say about fluorescence lifetime for N#Cc1ccc(-c2ccc3c(c2)c2cc(-c4ccc(C#N)cc4)ccc2c2c3nc(-c3ccc(-c4ccc(N(c5ccccc5)c5ccccc5)cc4)cc3)n2-c2ccccc2)cc1 ?
1.29 ns

Which fluorescence lifetime is listed for c1ccc(N(c2ccccc2)c2ccc(-c3cccc4nc5ccccc5cc34)cc2)cc1 ?
6.67 ns

Need fluorescence lifetime of CC(=O)Nc1ccc2c3c(cccc13)C(=O)c1ccccc1-2 , thanks.
2.6 ns

May I ask what fluorescence lifetime has been recorded for COC(=O)C(Cc1ccc2oc(-c3ccc(-n4c5ccccc5c5ccccc54)cc3)nc2c1)NC(=O)OC(C)(C)C (stereo not given) ?
2.8 ns

Item Nc1cccnc1 has what recorded fluorescence lifetime?
7.7 ns

What value of fluorescence lifetime has been reported for the following compound? COc1ccc(/C=C/C2=[O+][B-](F)(F)OC(/C=C/c3ccc(OC)c4ccccc34)=C2c2ccccc2)c2ccccc12
1.12 ns

Field request: fluorescence lifetime | item: CCCCCCC(CCCCCC)n1c(=O)c2c3ccc4cccc5c6cccc7ccc(c2c1=O)c(c76)c3c45
9.6 ns
